meta.source: ChEMBL document CHEMBL1667745

Tested on: Streptococcus pneumoniae
Experiment: Antimicrobial activity against erythromycin-resistant Streptococcus pneumoniae B1 expressing the erm gene by broth microdilution method
Type: functional
MIC: recorded values

{"GIVEN SMILES": "CC[C@H]1OC(=O)[C@H](C)[C@@H](O[C@H]2C[C@@](C)(OC)[C@@H](OC(=O)NCCc3ccc(O)cc3)[C@H](C)O2)[C@H](C)[C@@H](O[C@@H]2O[C@H](C)C[C@H](N(C)C)[C@H]2O)[C@](C)(OC)C[C@@H](C)C(=O)[C@H](C)[C@@H](O)[C@]1(C)O", "MIC [µg/mL]": 128}
{"GIVEN SMILES": "CC[C@H]1OC(=O)[C@H](C)[C@@H](O[C@H]2C[C@@](C)(OC)[C@@H](OC(=O)NCc3ccc(F)cc3)[C@H](C)O2)[C@H](C)[C@@H](O[C@@H]2O[C@H](C)C[C@H](N(C)C)[C@H]2O)[C@](C)(OC)C[C@@H](C)C(=O)[C@H](C)[C@@H](O)[C@]1(C)O", "MIC [µg/mL]": 4}
{"GIVEN SMILES": "CC[C@H]1OC(=O)[C@H](C)[C@@H](O[C@H]2C[C@@](C)(OC)[C@@H](OC(=O)NCCCCCC(=O)NCCc3ccccc3Cl)[C@H](C)O2)[C@H](C)[C@@H](O[C@@H]2O[C@H](C)C[C@H](N(C)C)[C@H]2O)[C@](C)(OC)C[C@@H](C)C(=O)[C@H](C)[C@@H](O)[C@]1(C)O", "MIC [µg/mL]": 64}
{"GIVEN SMILES": "CC[C@H]1OC(=O)[C@H](C)[C@@H](O[C@H]2C[C@@](C)(OC)[C@@H](OC(=O)NCCCC(=O)NCc3ccccc3)[C@H](C)O2)[C@H](C)[C@@H](O[C@@H]2O[C@H](C)C[C@H](N(C)C)[C@H]2O)[C@](C)(OC)C[C@@H](C)C(=O)[C@H](C)[C@@H](O)[C@]1(C)O", "MIC [µg/mL]": 2}
{"GIVEN SMILES": "CCCCNC(=O)CCCCCNC(=O)O[C@H]1[C@H](C)O[C@@H](O[C@H]2[C@H](C)[C@@H](O[C@@H]3O[C@H](C)C[C@H](N(C)C)[C@H]3O)[C@](C)(OC)C[C@@H](C)C(=O)[C@H](C)[C@@H](O)[C@](C)(O)[C@@H](CC)OC(=O)[C@@H]2C)C[C@@]1(C)OC", "MIC [µg/mL]": 128}
{"GIVEN SMILES": "CC[C@H]1OC(=O)[C@H](C)[C@@H](O[C@H]2C[C@@](C)(OC)[C@@H](OC(=O)NCCCC(=O)NCCc3ccccc3Cl)[C@H](C)O2)[C@H](C)[C@@H](O[C@@H]2O[C@H](C)C[C@H](N(C)C)[C@H]2O)[C@](C)(OC)C[C@@H](C)C(=O)[C@H](C)[C@@H](O)[C@]1(C)O", "MIC [µg/mL]": 32}
{"GIVEN SMILES": "CCCNC(=O)CCCCCNC(=O)O[C@H]1[C@H](C)O[C@@H](O[C@H]2[C@H](C)[C@@H](O[C@@H]3O[C@H](C)C[C@H](N(C)C)[C@H]3O)[C@](C)(OC)C[C@@H](C)C(=O)[C@H](C)[C@@H](O)[C@](C)(O)[C@@H](CC)OC(=O)[C@@H]2C)C[C@@]1(C)OC", "MIC [µg/mL]": 128}
